Sourced from patent US4245106A

Quick list: Post-Emergent herbicidal rating, H Quackgrass per entry.
Tested on: Quackgrass
Assay: post-emergent herbicidal activity test; further: ranges in brackets are in %
Type: in vivo
Conditions: *11.2 Kg/Ha; observed approximately 14 days after treatment

CCOC(=O)c1cn(C)nc1-c1cccc(C(F)(F)F)c1 [Example 12] :: 0 (0-24)

Endpoint output: Post-Emergent herbicidal rating, H Quackgrass of CCOC(=O)c1cn(CC)nc1-c1cccc(C(F)(F)F)c1 [Example 1] . Value?
1 (25-49)

Entry under review: CCOC(=O)c1cn(C)nc1-c1cc(C(F)(F)F)cc(C(F)(F)F)c1 [Example 10] . Reported Post-Emergent herbicidal rating, H Quackgrass?
0 (0-24)

# Post-Emergent herbicidal rating, H Quackgrass lookup, item CCSCCOC(=O)c1cn(C)nc1-c1cccc(C(F)(F)F)c1 [Example 23]
1 (25-49)

Fill in: Post-Emergent herbicidal rating, H Quackgrass of C=C(Cl)COC(=O)c1cn(C)nc1-c1cccc(C(F)(F)F)c1 [Example 19] is ___
0 (0-24)

Could you tell me which Post-Emergent herbicidal rating, H Quackgrass is on file for CCCCCCOC(=O)c1cn(C)nc1-c1cccc(C(F)(F)F)c1 [Example 21] ?
0 (0-24)

Using the record for Cn1cc(C(=O)OCC2CC(F)(F)C2(F)F)c(-c2cccc(C(F)(F)F)c2)n1 (centres unmarked) [Example 18] , report its Post-Emergent herbicidal rating, H Quackgrass.
1 (25-49)

I am curious: what Post-Emergent herbicidal rating, H Quackgrass value has been reported for Cn1cc(C(=O)OCCOc2ccccc2)c(-c2cccc(C(F)(F)F)c2)n1 [Example 22] ?
0 (0-24)
